biological target: S. aureus DNA gyrase (Staphylococcus aureus, UniProt P0A0K8)
Sequence (P0A0K8 whole entry): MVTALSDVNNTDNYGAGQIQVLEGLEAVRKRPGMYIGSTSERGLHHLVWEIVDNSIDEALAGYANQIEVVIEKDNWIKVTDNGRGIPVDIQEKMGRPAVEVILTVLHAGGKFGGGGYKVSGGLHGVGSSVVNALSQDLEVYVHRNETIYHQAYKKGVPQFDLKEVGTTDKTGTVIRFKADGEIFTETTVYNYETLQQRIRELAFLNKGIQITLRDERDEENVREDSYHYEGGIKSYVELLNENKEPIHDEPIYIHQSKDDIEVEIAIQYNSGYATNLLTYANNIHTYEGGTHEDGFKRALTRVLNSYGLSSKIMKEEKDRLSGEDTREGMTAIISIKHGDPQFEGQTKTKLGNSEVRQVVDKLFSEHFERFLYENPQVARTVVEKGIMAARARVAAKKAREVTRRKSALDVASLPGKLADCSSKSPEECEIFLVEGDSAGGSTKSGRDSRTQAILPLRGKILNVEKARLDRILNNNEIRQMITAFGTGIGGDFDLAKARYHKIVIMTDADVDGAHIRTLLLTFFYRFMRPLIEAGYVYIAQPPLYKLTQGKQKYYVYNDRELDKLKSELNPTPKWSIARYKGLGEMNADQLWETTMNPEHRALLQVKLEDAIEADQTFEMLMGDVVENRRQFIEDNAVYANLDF
Sequence (P20831 whole entry, further chain): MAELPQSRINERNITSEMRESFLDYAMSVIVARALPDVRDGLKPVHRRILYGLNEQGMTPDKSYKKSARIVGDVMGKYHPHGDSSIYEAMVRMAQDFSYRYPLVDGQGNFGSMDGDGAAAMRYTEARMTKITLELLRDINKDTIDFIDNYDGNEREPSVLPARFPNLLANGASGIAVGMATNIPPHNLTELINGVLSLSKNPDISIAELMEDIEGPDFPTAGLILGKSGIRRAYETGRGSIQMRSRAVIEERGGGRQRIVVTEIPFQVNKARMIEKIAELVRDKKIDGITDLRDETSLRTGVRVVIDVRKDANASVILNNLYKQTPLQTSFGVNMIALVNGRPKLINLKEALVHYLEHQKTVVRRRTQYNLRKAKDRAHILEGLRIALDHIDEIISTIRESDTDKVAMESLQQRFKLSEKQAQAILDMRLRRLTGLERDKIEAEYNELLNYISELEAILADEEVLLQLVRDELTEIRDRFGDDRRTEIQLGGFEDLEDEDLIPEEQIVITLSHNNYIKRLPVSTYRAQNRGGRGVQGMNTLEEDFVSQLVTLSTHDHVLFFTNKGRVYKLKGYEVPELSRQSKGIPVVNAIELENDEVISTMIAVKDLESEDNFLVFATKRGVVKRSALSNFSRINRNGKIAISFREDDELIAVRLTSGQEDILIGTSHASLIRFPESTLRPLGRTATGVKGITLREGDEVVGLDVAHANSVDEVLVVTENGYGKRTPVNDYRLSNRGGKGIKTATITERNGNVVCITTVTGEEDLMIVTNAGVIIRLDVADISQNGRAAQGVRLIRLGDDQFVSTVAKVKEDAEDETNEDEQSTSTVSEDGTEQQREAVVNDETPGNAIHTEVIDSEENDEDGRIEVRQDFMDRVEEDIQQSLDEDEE

# Smiles data, Assay target, IC50, nM
records = [
    ("Cc1[nH]c(C(=O)Nc2nc3c(N4CCOCC4)cc(C(=O)O)cc3s2)c(Cl)c1Cl", "S. aureus DNA gyrase (Staphylococcus aureus, UniProt P0A0K8)", 1.22),
]

* * *

test system: 100 A. baumannii strains (50 MDR, 50 non-MDR); assay: MIC broth microdilution at IHMA Europe, panel of 100 strains; type: cell-based; conditions: Acinetobacter baumannii, A. baumannii IHMA 1987162, Croatia 2019, MDR; read-out: MIC
Some molecules, each annotated with its measured MIC.

# Molecule, Assay target, Qualifier, MIC, µg/mL
measured = [
    ("COc1c(N2C[C@@H]3CCCN[C@@H]3C2)c(F)cc2c(=O)c(C(=O)O)cn(C3CC3)c12", "100 A. baumannii strains (50 MDR, 50 non-MDR)", "=", 8),
    ("Cc1[nH]c(C(=O)Nc2nc3c(N4[C@@H]5CC[C@H]4COC5)cc(C(=O)O)cc3s2)c(Cl)c1Cl", "100 A. baumannii strains (50 MDR, 50 non-MDR)", "=", 2),
    ("CN(C)c1cc(NC(=O)CNC(C)(C)C)c(O)c2c1C[C@H]1C[C@H]3[C@H](N(C)C)C(O)=C(C(N)=O)C(=O)[C@@]3(O)C(O)=C1C2=O", "100 A. baumannii strains (50 MDR, 50 non-MDR)", "=", 2),
    ("O=C(O)c1cn(C2CC2)c2cc(N3CCNCC3)c(F)cc2c1=O", "100 A. baumannii strains (50 MDR, 50 non-MDR)", ">", 16),
    ("C[C@@H](O)[C@H]1C(=O)N2C(C(=O)O)=C(S[C@@H]3CN[C@H](C(=O)N(C)C)C3)[C@H](C)[C@H]12", "100 A. baumannii strains (50 MDR, 50 non-MDR)", ">", 16),
    ("C[C@@H](O)[C@H]1C(=O)N2C(C(=O)O)=C(SCCNC=N)C[C@H]12", "100 A. baumannii strains (50 MDR, 50 non-MDR)", ">", 16),
    ("CO/N=C(\\C(=O)N[C@@H]1C(=O)N2C(C(=O)[O-])=C(C[N+]3(C)CCCC3)CS[C@H]12)c1csc(N)n1 [Cefepime, cefepime]", "100 A. baumannii strains (50 MDR, 50 non-MDR)", ">", 32),
]
